The reported numbers originate from patent US5942521A.

- System: passive cutaneous anaphylaxis (PCA) reaction
- EXPERIMENT DESCRIPTION: Effect on homologous passive cutaneous anaphylaxis (PCA) reaction in rats
- Assay type: in vivo
- PARTICULARS: Rattus norvegicus, po, 0.5 h; test compounds, 100 mg/kg p.o., 1 hour before induction of anaphylaxis, male wistar rats
- Procedure: Effect on homologous passive cutaneous anaphylaxis (PCA) reaction in rats This experimental animal model is caused by immediate type allergic reaction, namely, antigen-antibody reaction. In the following, the method of this pharmacological test will be explained. Method: Male wistar rats (9 weeks old) were intradermally administered 0.05 ml of anti-serum against dinitrophenylated ascaris (DNP-As) into two sites on the shaved dorsal skin. […]
# inhibition in vivo at 100 mg/kg per record follows
OBSERVABLE: inhibition in vivo at 100 mg/kg (%)

chem_smiles=CCCCCCOc1c(O)c(=O)n(C)c2cc(N)ccc12 reported_result=44
chem_smiles=CNc1ccc2c(OC)c(OC(C)=O)c(=O)n(C)c2c1 reported_result=45
chem_smiles=CCCCNc1ccc2c(OC)c(O)c(=O)[nH]c2c1 reported_result=45
chem_smiles=CCCCCCOc1c(O)c2ccc(N)cc2n(C)c1=O reported_result=60
chem_smiles=CCCCCCOc1c(O)c2ccc(N(C)C)cc2n(CCCC)c1=O reported_result=45
